Test: NCI Yeast Anticancer Drug Screen. Data for the rad50 strain (AID 155);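 also: 0% = growth of vehicle-only cultures of the same strain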
Settings: S. cerevisiae rad50 strain growth inhibition; at 50.0 µM; hits give high values
Protocol: Growth inhibition of yeast strains with defined genetic alterations is measured as a screen for potential anti-cancer activity. Selected strains with alterations in DNA damage repair or cell cycle control were exposed to compounds and growth inhibition was measured relative to vehicle treated controls. The strain used in this assay is rad50
About 79,000 compounds went through this panel and 15% of them were active in at least one assay; those are over-represented in the sample as a whole.
Outcome label depends on growth inhibition relative to 70%: at/above gives true (1), below gives false (0).

> print(dat)
                                   compound  class.name
1  CSC1=Nc2ccccc2SC(c2ccccc2)C1c1ccccc1 (stereo unspecified)   false (0)
2  CS(=O)(=O)OCCN(CCOS(C)(=O)=O)c1ccc(C=Nc2cc(Br)c(O)c(Br)c2)c(Cl)c1   false (0)
3  NC(=S)C(=S)N/C=C(/c1ccc(Cl)cc1)S(=O)(=O)Cc1ccc(Cl)cc1    true (1)
4                      COc1cc(C=O)c(Cl)cc1O   false (0)
5  CC(C)(C)c1ccc2c(c1)CNCCNCc1cc(C(C)(C)C)ccc1OCC1(CO2)COc2ccc(C(C)(C)C)cc2CNCCNCc2cc(C(C)(C)C)ccc2OC1    true (1)
6                         CC(C)c1cccc(O)c1O    true (1)

* * *

Known growth inhibition of a selection of compounds
Assay: NCI Yeast Anticancer Drug Screen. Data for the mec2-1 strain (AID 157)
Settings: S. cerevisiae mec2-1 strain, at 50.0 µM (retest, dose inferred, filed as 5.0), hits give high values
Procedure: Growth inhibition of yeast strains with defined genetic alterations is measured as a screen for potential anti-cancer activity. Selected strains with alterations in DNA damage repair or cell cycle control were exposed to compounds and growth inhibition was measured relative to vehicle treated controls. The strain used in this assay is mec2-1
Compounds without any hit were thinned out: in the full panel of roughly 79,000, 15% have a hit.
READOUT_NAME: growth inhibition (%)

> print(dat)
                                    compound       readout.name  assay.result
 1           O=c1onc(-c2ccc(Cl)cc2)c2ccccc12  growth inhibition             3
 2  C#CCN(N=O)C(=O)NCCCC(NC(C)=O)C(=O)NCc1ccccc1 (stereo unspecified)  growth inhibition           -10
 3  N#Cc1cccc(C[P+](c2ccccc2)(c2ccccc2)c2ccccc2)c1  growth inhibition            22
 4        O=C1/C(=C/c2cccc(F)c2)CCCc2ccccc21  growth inhibition            36
 5  CC1CCCC(C(c2c[nH]c3ccccc23)c2c[nH]c3ccccc23)C1=O (stereo unspecified)  growth inhibition            98
 6  CC(CC(C)[C@H]1CCC2[C@H]3C(CC[C@@]21C)[C@@]1(C)CCC(O)C[C@H]1C[C@@H]3O)C(=O)O (stereo partly specified)  growth inhibition            98
 7  COc1cccc2c1OC(c1cccc3ccccc13)C([N+](=O)[O-])=C2 (stereo unspecified)  growth inhibition            67
 8         Cc1cc(=O)n(-c2cc3cccccc-3n2)[nH]1  growth inhibition            97
 9      Clc1cc(Cl)c2c(c1)nc(Cl)c1cc(Cl)ccc12  growth inhibition             7
10  CCCC(CC)c1c(O)c(O)c(C(CC)CCC)c(C(CC)CCC)c1C(CC)CCC (stereo unspecified)  growth inhibition            52
11  CC1(C)CCN(CCOC(=O)C(c2ccccc2)C2C=CCCC2)C1 (stereo unspecified)  growth inhibition            50

* * *

Assay: NCI Yeast Anticancer Drug Screen. Data for the bub3 strain (AID 167)
Conditions: S. cerevisiae bub3 mutant strain, at 50.0 µM (retest, dose inferred, filed as 5.0)
The panel holds about 79,000 compounds, 15% with a hit somewhere; the sample as a whole holds those more often. Active and inactive are the calls of the source. No stated cut-off is given here; in the data, active means growth inhibition above about 70%; inactive means the rest.
Labels: 1 (yes) for active, 0 (no) for inactive

> print(dat)
                                    molecule  class.name
 1  Nc1ccc(C(=O)NN2C(=O)C(Cl)C2c2cc(Br)cc(Br)c2O)cc1 (stereo not given)      0 (no)
 2  COc1ccc(CSC2=C(C#N)C(=O)NC3(CCCCC3)S2)cc1      0 (no)
 3  CCOC(=O)/C(=C\N1C(=O)/C(=C\C(C)=C\c2ccccc2)SC1=S)C(=O)c1ccccc1      0 (no)
 4  O=C(C[n+]1ccccc1)N=N/C(C(=O)Nc1c(Cl)c(O)c2ccccc2c1O)=C1/C(=O)Oc2cc(O)ccc2C1=O     1 (yes)
 5  CC(=O)Oc1c2c(c(C)c3ccccc13)C(=O)c1cccnc1C2=O      0 (no)
 6      O=C(CCCO)N/N=C\c1ccc([N+](=O)[O-])s1      0 (no)
 7        S=C(Nc1cc(Cl)c(Cl)cc1Cl)SCc1ccccc1     1 (yes)
 8         CCCCCCCC/C=C\CCCCCCCC(=O)NCCN(C)C     1 (yes)
 9                O=Cc1cc([N+](=O)[O-])ccc1O     1 (yes)
10  CN(C)c1ccc2c(NCCCCCCNc3ccnc4cc(N(C)C)ccc34)ccnc2c1     1 (yes)

* * *

Test: NCI Yeast Anticancer Drug Screen. Data for the cln2 rad14 strain (AID 165);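 also: 0% = growth equal to vehicle treated cultures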
Settings: S. cerevisiae cln2 rad14 strain, at 50.0 µM, hits give high values
Compounds without any hit were thinned out: in the full panel of roughly 79,000, 15% have a hit. Activity calls are given as the source filed them. Rule as the data show it: active = growth inhibition above about 70%; inactive = the rest.
READOUT_NAME: growth inhibition

> print(dat)
                                    compound       assay.result
 1               O=c1c(-c2ccccc2)c1-c1ccccc1     97.6% (active)
 2  COc1ccc(/C(Cl)=C(\C=O)c2ccc(Cl)c(Cl)c2)cc1     92.5% (active)
 3  O=C1/C(=C\c2ccc(Cl)cc2Cl)Sc2scc(-c3cccc([N+](=O)[O-])c3)[n+]21     88.5% (active)
 4  C[C@]12CC[C@H]3[C@@H](CCC4=CC(=O)CC[C@@]43C)[C@@H]1CC[C@@H]2C(=O)C=O     39% (inactive)
 5  CCOC(=O)c1ccc(-n2c(C)nc3ccc(Br)cc3c2=O)cc1   64.5% (inactive)
 6  CC(=O)[O-].[Mn+3].[O-]c1ccc(Cl)cc1C=NCCN=Cc1cc(Cl)ccc1[O-]     89.2% (active)
 7                   c1ccc(OCCCOc2ccccc2)cc1  -5.75% (inactive)
 8                              NCCC1=CCCCC1   35.6% (inactive)
 9              Nc1ccc(N=Nc2ccccc2)c2ccccc12     98.5% (active)
10  Cc1ccc(S(=O)(=O)OC(COC(=O)c2ccc([N+](=O)[O-])cc2)C2OC(C)(C)OC2C(SCc2ccccc2)SCc2ccccc2)cc1 (stereo not given)   39.2% (inactive)

* * *

Known growth inhibition of a selection of compounds
Assay: NCI Yeast Anticancer Drug Screen. Data for the mec2-1 strain (AID 157)
Conditions: S. cerevisiae mec2-1 strain, at 50.0 µM, hits give high values
The panel holds about 79,000 compounds, 15% with a hit somewhere; the sample as a whole holds those more often.
READOUT_NAME: growth inhibition (%)

> print(dat)
                                    compound  assay.result
 1  NC(=O)N/N=C(/Cc1nc2ccccc2nc1C/C(=N/NC(N)=O)c1cccc2ccccc12)c1cccc2ccccc12          34.4
 2             O=C(CCl)N(Cc1ccccc1)Cc1ccccc1          92.1
 3  CCC1CCC(CC)C1O (configuration not stated)          22.9
 4           [C-]#[N+]C(C)(c1ccccc1)c1ccccc1          93.2
 5  CN(C)c1ccccc1CC(c1c[nH]c2ccccc12)c1c[nH]c2ccccc12          89.5
 6  Nc1ncnc2c1ncn2C1OCC(O)C1O (configuration not stated)          78.2
 7  C[C@@H]1CN(CC2COc3ccccc3O2)[C@@H](C)CN1CC1COc2ccccc2O1 (some centres not stated)          84.3
 8   CO/C(=N\N=C(/c1ccccc1)C(F)(F)F)c1ccncc1          62.6
 9  Cc1cc(NCCCCCCCNc2cc(C)nc3cc(N)ccc23)c2ccc(N)cc2n1          85.5
10  CCCCOC(=O)c1nc(N(CC2CCCCC2)C(=O)NC)sc1NC(=O)NC          0.85
11           Cc1ccc(C(=O)C(CN(C)C)CN(C)C)cc1          92.3
12   CC(=O)N(/C=C\c1sc2ccccc2[n+]1C)c1ccccc1          87.5
13             C(=C\c1cnnc2ccccc12)/c1cccnc1         -10.8
14  CSc1nc(N)c2cnn(C3OC(CO)C(O)C3O)c2n1 (configuration not stated)           2.8
15  O=C(c1ccccc1)c1[nH]c2ccccc2c(=O)c1-c1ccc([N+](=O)[O-])cc1          97.5
16  CCN(CC)c1ccc(NC(C(=O)c2ccc(Cl)cc2)c2ccc(Cl)cc2)cc1 (configuration not stated)          91.2
17  CS(=O)(=O)OCCN(CCOS(C)(=O)=O)c1ccc(C=Nc2ccc(-c3csc(-c4ccc(Cl)cc4)n3)cc2)cc1          94.4
18  O=C(CC(O)(C(F)(F)Cl)C(F)(F)Cl)CC(O)(C(F)(F)Cl)C(F)(F)Cl          99.5
19  CC(c1ccccc1)c1cc(C(C)(C)C)ccc1O (configuration not stated)          99.8
20  O=S(c1ccccc1)c1c(Cl)c(Cl)nc(Cl)c1Cl (configuration not stated)          99.6
21  COC(=O)C1c2cc3c(c(O)c2CCC1(C)O)C(=O)c1c(O)cc2c(c1C3=O)OC1OC2(C)C(O)C(N(C)C)C1O (configuration not stated)          86.3
22  COc1ccc(N2C(=O)C(=O)C(C(C)=O)C2=O)cc1 (configuration not stated)          99.3
